Molecular target: NEK1 (human) (UniProt Q96PY6)
Sequence (Q96PY6 whole entry, looked up): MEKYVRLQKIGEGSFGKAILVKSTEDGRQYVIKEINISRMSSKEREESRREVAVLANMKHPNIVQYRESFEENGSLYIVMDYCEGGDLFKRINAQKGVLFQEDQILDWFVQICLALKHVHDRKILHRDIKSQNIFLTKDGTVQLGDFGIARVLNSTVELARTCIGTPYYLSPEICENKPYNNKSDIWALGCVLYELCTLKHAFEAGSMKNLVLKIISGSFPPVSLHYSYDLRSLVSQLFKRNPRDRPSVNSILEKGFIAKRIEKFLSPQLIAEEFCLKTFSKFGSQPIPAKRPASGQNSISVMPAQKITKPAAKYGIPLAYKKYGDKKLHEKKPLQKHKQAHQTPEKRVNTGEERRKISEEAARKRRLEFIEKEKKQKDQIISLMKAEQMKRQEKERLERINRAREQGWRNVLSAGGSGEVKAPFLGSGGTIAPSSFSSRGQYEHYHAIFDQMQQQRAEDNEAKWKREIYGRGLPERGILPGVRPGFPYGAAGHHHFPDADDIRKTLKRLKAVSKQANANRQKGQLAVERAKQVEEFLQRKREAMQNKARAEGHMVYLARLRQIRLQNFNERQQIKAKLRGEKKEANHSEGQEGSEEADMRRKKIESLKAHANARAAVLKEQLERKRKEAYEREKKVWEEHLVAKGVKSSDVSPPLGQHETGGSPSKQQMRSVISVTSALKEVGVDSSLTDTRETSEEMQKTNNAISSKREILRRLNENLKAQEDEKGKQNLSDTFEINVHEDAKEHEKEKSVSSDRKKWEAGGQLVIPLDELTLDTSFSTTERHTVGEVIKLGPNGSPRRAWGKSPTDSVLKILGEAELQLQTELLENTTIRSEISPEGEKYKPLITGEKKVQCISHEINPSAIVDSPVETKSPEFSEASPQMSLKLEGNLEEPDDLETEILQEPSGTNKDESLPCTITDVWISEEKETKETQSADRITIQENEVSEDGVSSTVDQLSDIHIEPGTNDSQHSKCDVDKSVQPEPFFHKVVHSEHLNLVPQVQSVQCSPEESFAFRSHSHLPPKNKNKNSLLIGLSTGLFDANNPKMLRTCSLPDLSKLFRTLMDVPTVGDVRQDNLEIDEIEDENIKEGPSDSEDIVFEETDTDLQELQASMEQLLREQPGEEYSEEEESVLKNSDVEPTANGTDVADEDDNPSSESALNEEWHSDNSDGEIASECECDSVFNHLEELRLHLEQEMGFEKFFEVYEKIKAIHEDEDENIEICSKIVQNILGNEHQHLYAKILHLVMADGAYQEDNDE
Assay: KINOMEscan competition binding
Settings: compound 10.0 µM
outcome measure: kinase still bound, per cent of control (%)

>>> df
                            smiles_structure  value_unit  experimental_value
 0  COc1cc(C(=O)N2CCC(N3CCN(C)CC3)CC2)ccc1Nc1ncc2c(n1)N(C)c1ccccc1C(=O)N2C           %                  83
 1  COCC(=O)NC/C=C/c1ccc2ncnc(Nc3ccc(Oc4ccc(C)nc4)c(C)c3)c2c1           %                  83
 2  CN(C)C/C=C/C(=O)Nc1ccc(C(=O)Nc2cccc(Nc3nccc(-c4cccnc4)n3)c2)cc1           %                  63
 3  Cc1n[nH]c2ccc(-c3cncc(OC[C@@H](N)Cc4c[nH]c5ccccc45)c3)cc12           %                 100
 4  C=CC(=O)Nc1ccc(CN(C(=O)Nc2c(Cl)c(OC)cc(OC)c2Cl)c2cc(Nc3ccc(N4CCN(C)CC4)cc3)ncn2)cc1           %                 100
 5  CCN1CCN(C(=O)Cc2ccc(Nc3ncc(F)c(Nc4ccc(C(=O)Nc5ccccc5Cl)cc4)n3)cc2)CC1           %                  17
 6  CCN(CC)CCCCNc1ncc2cc(-c3cc(OC)cc(OC)c3)c(NC(=O)NC(C)(C)C)nc2n1           %                 100
 7  O=C(Nc1cccc(Nc2ncc(Br)c(NCCc3cnc[nH]3)n2)c1)N1CCCC1           %                  30
 8  CNC(=O)c1ccc(Nc2cc(Nc3ccccc3S(=O)(=O)C(C)C)c3cc[nH]c3n2)nc1           %                 100
 9  COc1ccc(N(C(=O)Oc2c(C)cccc2C)c2ccnc(Nc3ccc(N4CCN(C)CC4)cc3)n2)c(OC)c1           %                  76
10  O=c1cc(N2CCOCC2)oc2c(-c3cccc4c3sc3ccccc34)cccc12           %                  58
11  NC(=O)Nc1cc(-c2cccc(F)c2)sc1C(=O)N[C@@H]1CCCNC1           %                  24
12  COc1cc2ncn(-c3cc(OCc4ccccc4C(F)(F)F)c(C(N)=O)s3)c2cc1OC           %                  65
13  CS(=O)(=O)N1CCN(Cc2cc3nc(-c4cccc5[nH]ncc45)nc(N4CCOCC4)c3s2)CC1           %                 100
14  CCN(CC)CCCCNc1ncc2c(n1)N(C)C(=O)N(c1c(Cl)c(OC)cc(OC)c1Cl)C2           %                 100
15  C[C@@H](Oc1cc(-c2cnn(C3CCNCC3)c2)cnc1N)c1c(Cl)ccc(F)c1Cl           %                  56
16  COc1cc(N2CCN(C)CC2)ccc1Nc1ncc2c(n1)N(C)c1ccccc1C(=O)N2C           %                 100
17  CNC(=O)c1cc(Oc2ccc(NC(=O)Nc3ccc(Cl)c(C(F)(F)F)c3)cc2)ccn1           %                  88

====

Target: STK38L (human)
Test: KINOMEscan competition binding
Conditions: compound 10.0 µM
outcome measure: kinase still bound, per cent of control (%)

>>> print(df.to_string())
                           smiles_structure          target                          outcome_measure  value_unit  experimental_value
0  COc1cc(C(=O)N2CCC(N3CCN(C)CC3)CC2)ccc1Nc1ncc2c(n1)N(C)c1ccccc1C(=O)N2C  STK38L (human)  kinase still bound, per cent of control           %                 100
1  CN(C)C/C=C/C(=O)Nc1ccc(C(=O)Nc2cccc(Nc3nccc(-c4cccnc4)n3)c2)cc1  STK38L (human)  kinase still bound, per cent of control           %                 100
2  O=C1NC(=O)/C(=C/c2ccc3nccc(-c4ccncc4)c3c2)S1  STK38L (human)  kinase still bound, per cent of control           %                 100

====

Quick list: kinase still bound, per cent of control per entry.
Target: STK32B (human)
Assay: KINOMEscan competition binding
Details: compound 10.0 µM
outcome measure: kinase still bound, per cent of control (%)

>>> print(df.to_string())
                           smiles_structure                          outcome_measure  experimental_value
0  COc1cc(C(=O)N2CCC(N3CCN(C)CC3)CC2)ccc1Nc1ncc2c(n1)N(C)c1ccccc1C(=O)N2C  kinase still bound, per cent of control                 100
1  CCN(CC)CCCCNc1ncc2c(n1)N(C)C(=O)N(c1c(Cl)c(OC)cc(OC)c1Cl)C2  kinase still bound, per cent of control                 100
2  O=c1cc(N2CCOCC2)oc2c(-c3cccc4c3sc3ccccc34)cccc12  kinase still bound, per cent of control                  95
3  CNC(=O)c1ccc(Nc2cc(Nc3ccccc3S(=O)(=O)C(C)C)c3cc[nH]c3n2)nc1  kinase still bound, per cent of control                 100
4  C[C@@H](Oc1cc(-c2cnn(C3CCNCC3)c2)cnc1N)c1c(Cl)ccc(F)c1Cl  kinase still bound, per cent of control                 100
5  CS(=O)(=O)N1CCN(Cc2cc3nc(-c4cccc5[nH]ncc45)nc(N4CCOCC4)c3s2)CC1  kinase still bound, per cent of control                 100
6  CN(C)C/C=C/C(=O)Nc1ccc(C(=O)Nc2cccc(Nc3nccc(-c4cccnc4)n3)c2)cc1  kinase still bound, per cent of control                 100
7  COc1ccc(N(C(=O)Oc2c(C)cccc2C)c2ccnc(Nc3ccc(N4CCN(C)CC4)cc3)n2)c(OC)c1  kinase still bound, per cent of control                 1.1
8  COc1cc(N2CCN(C)CC2)ccc1Nc1ncc2c(n1)N(C)c1ccccc1C(=O)N2C  kinase still bound, per cent of control                 100

====

Target: UniProt Q96SB4
Sequence (Q96SB4 whole entry, looked up): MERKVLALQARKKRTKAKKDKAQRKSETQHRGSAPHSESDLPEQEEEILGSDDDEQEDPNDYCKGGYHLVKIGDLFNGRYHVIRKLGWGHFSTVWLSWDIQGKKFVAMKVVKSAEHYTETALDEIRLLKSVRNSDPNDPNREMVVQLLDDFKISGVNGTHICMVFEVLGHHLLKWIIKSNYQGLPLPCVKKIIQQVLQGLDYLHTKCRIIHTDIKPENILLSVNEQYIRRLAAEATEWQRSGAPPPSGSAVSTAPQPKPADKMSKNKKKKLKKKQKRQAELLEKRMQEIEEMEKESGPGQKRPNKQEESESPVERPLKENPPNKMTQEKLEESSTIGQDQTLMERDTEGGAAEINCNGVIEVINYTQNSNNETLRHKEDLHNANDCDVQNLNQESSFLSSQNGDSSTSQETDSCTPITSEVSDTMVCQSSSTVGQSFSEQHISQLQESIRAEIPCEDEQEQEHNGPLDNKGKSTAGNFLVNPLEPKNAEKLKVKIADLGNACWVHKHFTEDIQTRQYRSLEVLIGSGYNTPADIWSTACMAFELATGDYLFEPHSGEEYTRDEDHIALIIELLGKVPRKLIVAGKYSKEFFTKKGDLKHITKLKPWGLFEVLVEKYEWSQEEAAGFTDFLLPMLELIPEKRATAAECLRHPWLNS
Test: KINOMEscan competition binding
Conditions: compound 10.0 µM
outcome measure: kinase still bound, per cent of control (%)

In [3]: df
Out[3]:
                           smiles_structure  experimental_value
0  COCC(=O)NC/C=C/c1ccc2ncnc(Nc3ccc(Oc4ccc(C)nc4)c(C)c3)c2c1                 100
1  COc1ccc(N(C(=O)Oc2c(C)cccc2C)c2ccnc(Nc3ccc(N4CCN(C)CC4)cc3)n2)c(OC)c1                  23
2  NC(=O)Nc1cc(-c2cccc(F)c2)sc1C(=O)N[C@@H]1CCCNC1                 1.4

====

Target: CDC42BPB (human) (UniProt Q9Y5S2)
Sequence (Q9Y5S2 whole entry, looked up): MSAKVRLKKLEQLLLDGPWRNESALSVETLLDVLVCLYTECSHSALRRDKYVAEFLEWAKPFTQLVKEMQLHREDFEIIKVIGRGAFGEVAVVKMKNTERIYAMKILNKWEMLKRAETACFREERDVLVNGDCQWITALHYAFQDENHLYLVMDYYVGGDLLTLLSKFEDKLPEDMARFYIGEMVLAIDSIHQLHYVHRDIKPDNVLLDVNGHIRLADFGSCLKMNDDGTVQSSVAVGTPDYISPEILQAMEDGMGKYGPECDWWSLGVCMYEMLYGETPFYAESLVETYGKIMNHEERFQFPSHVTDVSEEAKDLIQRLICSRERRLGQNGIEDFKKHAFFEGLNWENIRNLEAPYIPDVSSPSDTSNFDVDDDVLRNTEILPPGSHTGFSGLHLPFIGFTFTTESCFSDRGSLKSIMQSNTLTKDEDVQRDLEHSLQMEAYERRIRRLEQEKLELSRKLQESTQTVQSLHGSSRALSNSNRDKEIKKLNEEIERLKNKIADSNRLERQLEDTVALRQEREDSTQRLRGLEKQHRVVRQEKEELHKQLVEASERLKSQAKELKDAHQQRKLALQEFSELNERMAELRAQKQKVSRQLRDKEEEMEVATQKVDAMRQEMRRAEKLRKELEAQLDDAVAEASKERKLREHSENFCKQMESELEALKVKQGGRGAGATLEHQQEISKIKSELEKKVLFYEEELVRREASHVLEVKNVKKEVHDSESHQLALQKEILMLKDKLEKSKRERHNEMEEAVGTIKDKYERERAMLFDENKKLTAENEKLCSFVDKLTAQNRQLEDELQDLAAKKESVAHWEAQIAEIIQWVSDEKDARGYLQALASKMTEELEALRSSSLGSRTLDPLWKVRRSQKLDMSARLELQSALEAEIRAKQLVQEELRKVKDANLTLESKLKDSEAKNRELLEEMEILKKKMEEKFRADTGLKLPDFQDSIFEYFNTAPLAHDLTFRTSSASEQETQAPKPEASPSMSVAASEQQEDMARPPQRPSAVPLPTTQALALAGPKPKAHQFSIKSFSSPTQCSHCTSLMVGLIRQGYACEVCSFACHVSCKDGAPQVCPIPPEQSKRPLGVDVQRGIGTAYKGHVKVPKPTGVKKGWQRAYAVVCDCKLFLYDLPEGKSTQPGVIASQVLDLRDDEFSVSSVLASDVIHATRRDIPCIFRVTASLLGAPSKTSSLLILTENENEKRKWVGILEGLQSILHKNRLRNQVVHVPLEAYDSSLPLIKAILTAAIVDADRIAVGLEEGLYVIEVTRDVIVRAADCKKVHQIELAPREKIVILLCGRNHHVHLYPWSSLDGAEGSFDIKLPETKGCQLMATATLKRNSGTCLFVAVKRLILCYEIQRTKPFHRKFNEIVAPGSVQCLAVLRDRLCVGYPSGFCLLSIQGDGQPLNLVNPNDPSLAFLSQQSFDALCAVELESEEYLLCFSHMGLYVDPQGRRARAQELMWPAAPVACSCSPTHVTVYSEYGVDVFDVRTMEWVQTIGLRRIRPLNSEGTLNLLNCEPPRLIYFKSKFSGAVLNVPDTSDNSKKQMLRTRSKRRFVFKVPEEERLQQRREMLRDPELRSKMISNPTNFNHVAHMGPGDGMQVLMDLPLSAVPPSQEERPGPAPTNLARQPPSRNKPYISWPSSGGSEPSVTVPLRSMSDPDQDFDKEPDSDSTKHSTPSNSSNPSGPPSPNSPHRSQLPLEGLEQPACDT
Test: KINOMEscan competition binding
Conditions: compound 10.0 µM
outcome measure: kinase still bound, per cent of control (%)

>>> df
                           smiles_structure                             target  experimental_value
0  COc1cc2ncn(-c3cc(OCc4ccccc4C(F)(F)F)c(C(N)=O)s3)c2cc1OC  CDC42BPB (human) (UniProt Q9Y5S2)                  64
1  CNC(=O)c1ccc(Nc2cc(Nc3ccccc3S(=O)(=O)C(C)C)c3cc[nH]c3n2)nc1  CDC42BPB (human) (UniProt Q9Y5S2)                 100
2  COc1ccc(N(C(=O)Oc2c(C)cccc2C)c2ccnc(Nc3ccc(N4CCN(C)CC4)cc3)n2)c(OC)c1  CDC42BPB (human) (UniProt Q9Y5S2)                 2.9

====

Biological target: RPS6KA2 KD1 (human)
Experiment: KINOMEscan competition binding
Details: compound 10.0 µM
Quick list: kinase still bound, per cent of control per entry.
outcome measure: kinase still bound, per cent of control (%)

In [3]: df
Out[3]:
                           smiles_structure  value_unit  experimental_value
0  N#CCNC(=O)c1ccc(-c2ccnc(Nc3ccc(N4CCOCC4)cc3)n2)cc1           %                 100
1  COc1cc2ncnc(-n3nc(-c4ccccn4)nc3N)c2cc1OC           %                  76
2  CN(C)C/C=C/C(=O)Nc1ccc(C(=O)Nc2cccc(Nc3nccc(-c4cccnc4)n3)c2)cc1           %                  83
3  CNC(=O)c1cc(Oc2ccc(NC(=O)Nc3ccc(Cl)c(C(F)(F)F)c3)cc2)ccn1           %                  55
4  COc1cc(C(=O)N2CCC(N3CCN(C)CC3)CC2)ccc1Nc1ncc2c(n1)N(C)c1ccccc1C(=O)N2C           %                  83

From: the kinase profiling compilation of Christmann-Franck et al. (2016)
